- system.under.test: E3 ubiquitin-protein ligase XIAP (Homo sapiens) (UniProt P98170)
- Sequence (P98170 whole entry, looked up): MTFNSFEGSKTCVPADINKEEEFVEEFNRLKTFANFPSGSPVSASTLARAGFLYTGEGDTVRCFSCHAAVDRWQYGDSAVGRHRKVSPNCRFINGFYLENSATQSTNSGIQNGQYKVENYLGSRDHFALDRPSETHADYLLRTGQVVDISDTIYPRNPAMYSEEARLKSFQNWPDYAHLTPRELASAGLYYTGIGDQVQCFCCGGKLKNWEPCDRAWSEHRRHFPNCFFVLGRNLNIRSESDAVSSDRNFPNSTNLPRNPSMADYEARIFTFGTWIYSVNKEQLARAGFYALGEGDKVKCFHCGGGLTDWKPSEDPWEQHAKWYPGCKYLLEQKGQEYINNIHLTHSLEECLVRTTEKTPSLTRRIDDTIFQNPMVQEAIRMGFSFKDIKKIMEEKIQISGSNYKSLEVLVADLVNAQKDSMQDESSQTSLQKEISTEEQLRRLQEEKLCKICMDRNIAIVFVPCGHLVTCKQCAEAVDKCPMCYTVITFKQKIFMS
- assay.summary: XIAP binders, primary screen, biophysical, small-molecule microarray, fluorescence 635 nm (AID 1181);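 further: score merges 667 nm emission and signal to noise over triplicate slides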
- experimental.context: small-molecule microarray binding, higher = more signal
parameter.measured: composite z-score
I only need the number, thanks.

{"molecule.smiles": "CN(C)C(=O)[C@]1(CCC(=O)OC(C)(C)C)N=C(c2ccc(OCCCO)cc2)O[C@@H]1c1ccccc1N=[N+]=[N-]", "composite z-score": 0.0317}
{"molecule.smiles": "O=c1cccc(C=Cc2ccccc2)o1", "composite z-score": -0.248}

Entry O=C1N(CCS(=O)(=O)c2ccccc2)c2ccccc2C[C@@]12COC(c1ccc(OCCCO)cc1)=N2 has what composite z-score? 0.262

----------
- assay.summary: small-molecule binders of probe aNOTCH3, primary screen, biochemical, small-molecule microarray, 635/667 nm fluorescence (AID 1120);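 further: probe is a biotin-tagged antibody raised against NOTCH3 rather than NOTCH3 protein; score merges spot fluorescence near 667 nm with spot signal to noise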
- experimental.context: higher = more signal
parameter.measured: composite z-score
I only need the number, thanks.

{"compound": "CCOC(=O)C[C@H]1[C@H](OC(=O)Cc2ccc3c(c2)OCO3)[C@@H](NC(=O)c2ccc(-c3ccccc3)cc2)c2cc(OCCCO)ccc2N1C(=O)c1ccccc1", "composite z-score": 0.0316}
{"compound": "COc1cc(C(O)C2C=CC3C(=O)N(c4ccccc4)C(=O)C3N2Nc2ccc(C#N)cc2)cc(OC)c1OC (configuration not stated)", "composite z-score": 0.178}
{"compound": "[N-]=[N+]=NCc1ccccc1[C@@H]1OC(c2ccc(OCCCO)cc2)=N[C@]1(Cc1ccccc1N=[N+]=[N-])C(=O)NCc1ccccc1", "composite z-score": 0.111}
{"compound": "CCOC(=O)C1=CCC(C(C)(C)C)N(S(=O)(=O)c2ccc(C)cc2)C1 (configuration not stated)", "composite z-score": 0.34}
{"compound": "COC(=O)[C@@]1(Cc2ccccc2)[C@H]2c3cc(C(=O)N(C)C)n(Cc4cc(C)n(C)n4)c3C[C@H]2CN1C(=O)c1ccccc1", "composite z-score": 0.718}
{"compound": "O=C1O[C@@H](c2ccccc2)[C@@H](c2ccccc2)N2[C@@H](c3ccc(O)cc3)[C@]3(C(=O)Nc4ccc(C#CC5=CCCCC5)cc43)[C@@H](C(=O)O)[C@H]12", "composite z-score": 0.139}
{"compound": "C=C(CCCC)/C(=C/C[C@H](OC(C)=O)c1ccc(CO)o1)c1cnc2ccccc2c1", "composite z-score": 0.0282}
{"compound": "O=C1OCC=C[C@H]2OC34C=CCN(c5ccc6ccccc6c5)C(=O)[C@H]3N(CCCO)C(=O)[C@@H]4[C@@H]12 (some centres not stated)", "composite z-score": -0.256}

Entry COc1ccc(CCNC(=O)[C@@H]2c3ccccc3C(=O)N(Cc3ccc(OC(F)(F)F)cc3)[C@H]2c2ccc(CO)cc2)cc1 has what composite z-score? -0.0077

Another compound to check: CCOC(=O)C[C@H]1[C@H](OC(=O)Cc2ccc3c(c2)OCO3)[C@@H](NC(=O)C2CCCCC2)c2cc(OCCCO)ccc2N1C(=O)Cc1ccc(OC)cc1 0.369

Another compound to check: CO[C@H]1O[C@H](CO)[C@@H](OC(=O)Nc2ccc3c(c2)OCO3)[C@H](OC(=O)Nc2ccccc2)[C@H]1OC(=O)Nc1ccccc1 0.0773

Another compound to check: C=C(COC)C(=O)CC[C@H](OC(C)=O)c1cccc(OCCO)c1 -0.165

Another compound to check: COc1ccc(C#Cc2ccc3c(c2)[C@]2(C(=O)N3)[C@H](C(=O)NC[C@H](O)c3ccccc3)[C@H]3C(=O)O[C@H](c4ccccc4)[C@H](c4ccccc4)N3[C@@H]2c2ccccc2OCCO)cc1 0.175

----------
- assay.summary: S. cerevisiae growth modulation with rapamycin, primary screen, strain BY4716, OD600, 96 h (AID 1091); further: test concentration not given here
- experimental.context: higher = more signal, called active from +8 up or from −8 down
# z-score >= 0.1 gives criterion met, anything below gives criterion not met

Worked examples, 5 compounds total:
{"compound": "C=C(COC)C(=O)CC[C@H](OC(C)=O)c1cccc(OCCO)c1", "assigned.label": "criterion not met"}
{"compound": "COC(=O)[C@@]1(Cc2ccccc2)[C@H]2c3cc(C(=O)N4CCCC4)n(Cc4ccc(C)o4)c3C[C@H]2CN1C(=O)c1ccccc1", "assigned.label": "criterion not met"}
{"compound": "CC(C)C[C@@H]1NC(=O)[C@@H]2C[C@H](C(=O)NCCCCCC[N+](C)(C)C)[C@H](c3ccc(O)cc3)N2C1=O", "assigned.label": "criterion met"}
{"compound": "C=C[C@H](COC(C)=O)N(Cc1ccc(OC(C)=O)c(OC)c1)S(=O)(=O)c1ccc(Br)cc1", "assigned.label": "criterion met"}
{"compound": "CCCCCCCCCCC(O)C1C=CC2C(=O)N(Cc3ccccc3)C(=O)C2N1n1cnnc1 (configuration not stated)", "assigned.label": "criterion not met"}

Check if z-score >= 0.1 (inclusive). Item: CCOC(=O)[C@H]1C/C=C/C[C@H](C(=O)OCC)C(=O)O[C@H]2[C@@H](OC)O[C@H](CO)[C@@H](OC(=O)Nc3ccc4c(c3)OCO4)[C@@H]2OC1=O criterion met

Another compound to check: C=CCNC(=O)[C@@H]1[C@H]2C(=O)O[C@H](c3ccccc3)[C@H](c3ccccc3)N2[C@H](c2ccc(O)cc2)[C@@]12C(=O)N(C(=O)OCCOC)c1ccccc12 criterion met

----------
- assay.summary: small-molecule microarray binders of probe aXIP, primary screen, biochemical, NeuroSMM set, 635/667 nm fluorescence (AID 1119);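 further: probe is the protein aXip251-270 applied at 1 µg/mL to compound-printed slides; binding of probe to printed compounds measured as 667 nm fluorescence plus signal to noise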
- experimental.context: higher = more signal, called active from +8 up or from −8 down
composite Z-score overview
I only need the number, thanks.

{"compound": "Cc1ccc(S[C@]2(C(=O)NCc3ccccc3)CC(=O)N(Cc3ccccc3)[C@@H]2c2ccc(CO)cc2)cc1", "composite Z-score": 0.115}
{"compound": "C=CCC(OC(C)=O)[C@@H]1[C@@H](N(Cc2cc3ccccc3o2)C(=O)c2ccc(C)cc2)c2cc(OCCCO)ccc2N1C(=O)c1ccc2ccccc2c1 (some centres not stated)", "composite Z-score": 0.698}
{"compound": "CS(=O)(=O)CCOC(=O)C1=CC(c2ccc(CO)cc2)=CC(C2CC2)N(Cc2cc3c(cc2Br)OCO3)C=C1C(=O)OCCS(C)(=O)=O (configuration not stated)", "composite Z-score": -0.0662}
{"compound": "COCCOC(=O)N1C(=O)[C@@]2(c3cc(C#CCNC(N)=O)ccc31)[C@H](c1ccc(OCCO)cc1)N1[C@H](c3ccccc3)[C@H](c3ccccc3)OC(=O)[C@H]1[C@@H]2C(=O)N1CCc2cc(OC)c(OC)cc2C1", "composite Z-score": -0.0505}

Entry CC(C)N1CC=CC23O[C@@H]4C=CCOC(=O)[C@@H]4[C@H]2C(=O)N(CCO)[C@@H]3C1=O (some centres not stated) has what composite Z-score? 0.604

Another compound to check: COc1cc(C(O)C2C=CC3C(=O)N(c4ccccc4)C(=O)C3N2Nc2ccc(C#N)cc2)cc(OC)c1OC (configuration not stated) 0.0402

Another compound to check: O=C(CCN1CCOCC1)c1cccc(O)c1 0.989

----------
- assay.summary: E. coli acrAB mutant growth effects, primary screen, E. coli filamentation inducers, strain DRC39, OD650, 24 h (AID 1178);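 further: growth measured as culture turbidity by optical density at 650 nm; test concentration not given here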
- experimental.context: higher = more signal, called active from +8 up or from −8 down
z-score overview
I only need the number, thanks.

// below: answered molecules
{"molecule": "O=C1N(CCS(=O)(=O)c2ccccc2)c2ccccc2C[C@@]12COC(c1ccc(OCCCO)cc1)=N2", "z-score": -0.0526}
{"molecule": "COc1ccc([Si](C)(C)[C@H]2[C@H](CCn3cc(CCO)nn3)O[C@@]3(C(=O)N(Cc4ccc(N5CCOC5=O)cc4)c4ccccc43)[C@@H]2C)cc1", "z-score": 0.864}
{"molecule": "CC(C)(C)N1CC=CC23O[C@@H]4C=CCOC(=O)[C@@H]4[C@H]2C(=O)N(CCCCCO)[C@@H]3C1=O (some centres not stated)", "z-score": -1.09}
{"molecule": "O=C(CCN1CCOCC1)c1cccc(O)c1", "z-score": 0.251}

Entry CCC(CC)C(O)C1C=CC2C(=O)N(c3ccccc3)C(=O)C2N1Nc1ccc(C#N)cc1 (configuration not stated) has what z-score? -0.698

Another molecule to check: COCCOC(=O)N1C(=O)[C@@]2(c3cc(C#CCNC(N)=O)ccc31)[C@H](C(=O)N1CCc3cc(OC)c(OC)cc3C1)[C@H]1C(=O)O[C@H](c3ccccc3)[C@H](c3ccccc3)N1[C@@H]2c1ccc(OCCO)cc1 0.987

Another molecule to check: O=C1O[C@H](c2ccccc2)[C@H](c2ccccc2)N2[C@H]1[C@@H](C(=O)O)[C@]1(C(=O)Nc3ccc(C#CC4(O)CCCCCC4)cc31)[C@H]2c1ccc(OCCO)cc1 -0.184
